- assay-target: CYP 2B6 (Homo sapiens)
- Sequence (P20813 whole entry): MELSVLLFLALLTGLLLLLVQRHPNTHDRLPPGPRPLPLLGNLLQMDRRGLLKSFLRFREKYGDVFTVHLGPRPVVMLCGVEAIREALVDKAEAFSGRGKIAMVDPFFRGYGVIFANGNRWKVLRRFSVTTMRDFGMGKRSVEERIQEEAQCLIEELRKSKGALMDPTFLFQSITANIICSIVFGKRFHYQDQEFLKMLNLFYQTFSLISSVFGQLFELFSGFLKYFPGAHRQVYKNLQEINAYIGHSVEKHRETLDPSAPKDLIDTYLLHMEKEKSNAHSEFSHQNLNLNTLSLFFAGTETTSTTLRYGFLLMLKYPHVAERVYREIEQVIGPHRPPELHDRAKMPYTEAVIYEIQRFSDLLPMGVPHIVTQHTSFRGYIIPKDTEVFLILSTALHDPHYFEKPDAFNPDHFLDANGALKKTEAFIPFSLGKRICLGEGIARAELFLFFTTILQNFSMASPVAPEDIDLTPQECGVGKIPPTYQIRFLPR
readout-label: pIC50
pIC50 is defined as minus the log10 of a concentration measured in mol/L.

Just so you know, measured pIC50 for COC1C=COC2(C)Oc3c(C)c(O)c4c(=O)c(c5oc6cc(OCCN(C)C)ccc6nc-5c4c3C2=O)NC(=O)C(C)=CC=CC(C)C(O)C(C)C(O)C(C)C(OC(C)=O)C1C (stereo not shown) came out at 4.94

====

- System: S. aureus NRS384
- test-name: S. aureus broth killing (growth inhibition) assay
- condition-details: S. aureus NRS384, TSB, 24 h, OD600
readout-label: Broth MIC (nM)
Enter your answer as a number in nM; do not include the unit.

Example entries begin here.
CO[C@H]1/C=C/O[C@@]2(C)Oc3c(C)c(O)c4c(O)c(c(/C=N/N5CCN(C)CC5)c(O)c4c3C2=O)NC(=O)/C(C)=C\C=C\[C@H](C)[C@H](O)[C@@H](C)[C@@H](O)[C@@H](C)[C@H](OC(C)=O)[C@@H]1C [Compound 1, rifampicin]: 15.6
COC1C=COC2(C)Oc3c(C)c(O)c4c(=O)c(c5oc6ccc(OCCN(C)C)cc6nc-5c4c3C2=O)NC(=O)C(C)=CC=CC(C)C(O)C(C)C(O)C(C)C(OC(C)=O)C1C (centres unmarked) [Compound 6]: 62.5
COC1C=COC2(C)Oc3c(C)c(O)c4c(=O)c(c5oc6cc(OCCN)ccc6nc-5c4c3C2=O)NC(=O)C(C)=CC=CC(C)C(O)C(C)C(O)C(C)C(OC(C)=O)C1C (centres unmarked) [Compound 2]: 412

// sample COC1C=COC2(C)Oc3c(C)c(O)c4c(=O)c(c5oc6cc(OCCN(C)C)ccc6nc-5c4c3C2=O)NC(=O)C(C)=CC=CC(C)C(O)C(C)C(O)C(C)C(OC(C)=O)C1C (centres unmarked) [Compound 4] , its Broth MIC was 3.91

Please fill in: Broth MIC reported for CNCCOc1ccc2nc3c4c5c6c(C)c(O)c4c(=O)c(c-3oc2c1)NC(=O)C(C)=CC=CC(C)C(O)C(C)C(O)C(C)C(OC(C)=O)C(C)C(OC)C=COC(C)(O6)C5=O (centres unmarked) [Compound 3] = 45.7

====

- test-name: in vitro
- condition-details: SD, rat, s9
readout-label: half-life (h)
Please state the figure in h; there is no need to write the unit.

Documented half-life of CO[C@H]1/C=C/O[C@@]2(C)Oc3c(C)c(O)c4c(c3C2=O)C2=NC3(CCN(CC(C)C)CC3)NC2=C(NC(=O)/C(C)=C\C=C\[C@H](C)[C@H](O)[C@@H](C)[C@@H](O)[C@@H](C)[C@H](OC(C)=O)[C@@H]1C)C4=O : 19.9

====

- assay-target: UniProt:P10632
- Sequence (P10632 whole entry): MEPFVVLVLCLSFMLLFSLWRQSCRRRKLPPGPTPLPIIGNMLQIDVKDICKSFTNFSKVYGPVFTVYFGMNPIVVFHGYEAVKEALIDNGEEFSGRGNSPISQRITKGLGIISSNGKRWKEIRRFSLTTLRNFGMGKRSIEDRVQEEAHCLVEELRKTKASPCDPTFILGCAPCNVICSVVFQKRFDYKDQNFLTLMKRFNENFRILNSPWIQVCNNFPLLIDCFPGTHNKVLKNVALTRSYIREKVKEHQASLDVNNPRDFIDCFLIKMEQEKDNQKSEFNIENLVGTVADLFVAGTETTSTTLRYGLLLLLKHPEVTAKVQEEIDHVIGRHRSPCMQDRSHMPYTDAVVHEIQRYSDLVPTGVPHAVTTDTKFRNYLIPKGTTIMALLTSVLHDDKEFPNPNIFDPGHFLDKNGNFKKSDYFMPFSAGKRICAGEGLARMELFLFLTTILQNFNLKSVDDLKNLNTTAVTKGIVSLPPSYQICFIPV
- test-name: CYP inhibition
- condition-details: read-out: CYP inhibition IC50; CYP 2C8, substrate Amodiaquine; ND = Not Detected
readout-label: pIC50
Friendly reminder that pIC50 comes from taking -log10 of the concentration in mol/L.

Lab note: measured pIC50 of COC1C=COC2(C)Oc3c(C)c(O)c4c(=O)c(c5oc6cc(OCCN(C)C)ccc6nc-5c4c3C2=O)NC(=O)C(C)=CC=CC(C)C(O)C(C)C(O)C(C)C(OC(C)=O)C1C (stereo not shown) was 5.17

====

- test-name: in vitro
- condition-details: human, Caco-2
readout-label: Papp B→A (×10⁻⁶ cm/s)
Only the number, expressed in ×10⁻⁶ cm/s, is required.

CO[C@H]1/C=C/O[C@@]2(C)Oc3c(C)c(O)c4c(c3C2=O)C2=NC3(CCN(CC(C)C)CC3)NC2=C(NC(=O)/C(C)=C\C=C\[C@H](C)[C@H](O)[C@@H](C)[C@@H](O)[C@@H](C)[C@H](OC(C)=O)[C@@H]1C)C4=O [Rifabutin]: 7.15

Okay, now this compound:
So, CO[C@H]1/C=C/O[C@@]2(C)Oc3c(C)c(O)c4c(O)c(c(/C=N/N5CCN(C)CC5)c(O)c4c3C2=O)NC(=O)/C(C)=C\C=C\[C@H](C)[C@H](O)[C@@H](C)[C@@H](O)[C@@H](C)[C@H](OC(C)=O)[C@@H]1C [Compound 1, rifampicin] ? Its Papp B→A was 5.93

====

The entries below are paired with their reported Papp B→A.
- assay-target: P-gp (MDR1) (Homo sapiens)
- Sequence (P08183 whole entry): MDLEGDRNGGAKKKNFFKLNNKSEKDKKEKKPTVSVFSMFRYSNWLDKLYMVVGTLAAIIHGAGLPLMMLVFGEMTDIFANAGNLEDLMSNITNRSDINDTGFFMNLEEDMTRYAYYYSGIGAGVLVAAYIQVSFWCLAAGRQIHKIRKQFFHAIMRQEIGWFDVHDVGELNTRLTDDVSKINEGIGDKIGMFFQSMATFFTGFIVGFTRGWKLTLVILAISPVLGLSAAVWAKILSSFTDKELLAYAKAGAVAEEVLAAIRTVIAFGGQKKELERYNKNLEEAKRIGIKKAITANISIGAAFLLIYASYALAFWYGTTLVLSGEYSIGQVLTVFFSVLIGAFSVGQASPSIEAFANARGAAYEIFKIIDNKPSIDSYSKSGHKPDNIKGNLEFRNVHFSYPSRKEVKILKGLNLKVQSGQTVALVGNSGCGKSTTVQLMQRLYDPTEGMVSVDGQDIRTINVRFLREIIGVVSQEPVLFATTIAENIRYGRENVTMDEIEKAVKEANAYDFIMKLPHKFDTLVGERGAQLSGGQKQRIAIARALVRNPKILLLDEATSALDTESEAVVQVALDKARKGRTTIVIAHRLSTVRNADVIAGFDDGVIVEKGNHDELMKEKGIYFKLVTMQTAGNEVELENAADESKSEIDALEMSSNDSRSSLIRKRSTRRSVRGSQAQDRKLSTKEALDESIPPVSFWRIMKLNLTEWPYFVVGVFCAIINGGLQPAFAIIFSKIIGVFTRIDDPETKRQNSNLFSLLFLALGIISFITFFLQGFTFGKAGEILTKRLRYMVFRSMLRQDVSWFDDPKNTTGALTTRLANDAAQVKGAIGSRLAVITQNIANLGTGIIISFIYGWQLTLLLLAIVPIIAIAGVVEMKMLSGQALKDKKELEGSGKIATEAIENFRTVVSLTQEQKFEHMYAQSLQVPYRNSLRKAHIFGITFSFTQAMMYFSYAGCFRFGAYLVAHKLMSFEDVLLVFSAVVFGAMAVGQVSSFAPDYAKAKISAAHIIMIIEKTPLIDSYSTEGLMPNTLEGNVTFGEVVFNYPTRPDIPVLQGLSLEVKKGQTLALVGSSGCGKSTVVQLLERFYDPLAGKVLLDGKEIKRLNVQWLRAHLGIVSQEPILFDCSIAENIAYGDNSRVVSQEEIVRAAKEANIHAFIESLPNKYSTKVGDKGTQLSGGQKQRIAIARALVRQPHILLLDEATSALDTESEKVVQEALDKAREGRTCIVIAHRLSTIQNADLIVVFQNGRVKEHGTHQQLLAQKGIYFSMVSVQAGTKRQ
- test-name: in vitro
- condition-details: dog, MDCK-MDR1
Give just the numeric value; ×10⁻⁶ cm/s need not be written.

CO[C@H]1/C=C/O[C@@]2(C)Oc3c(C)c(O)c4c(O)c(c(/C=N/N5CCN(C)CC5)c(O)c4c3C2=O)NC(=O)/C(C)=C\C=C\[C@H](C)[C@H](O)[C@@H](C)[C@@H](O)[C@@H](C)[C@H](OC(C)=O)[C@@H]1C [Compound 1, rifampicin]: 6.25

Now, please, on to the next molecule.
So, CO[C@H]1/C=C/O[C@@]2(C)Oc3c(C)c(O)c4c(c3C2=O)C2=NC3(CCN(CC(C)C)CC3)NC2=C(NC(=O)/C(C)=C\C=C\[C@H](C)[C@H](O)[C@@H](C)[C@@H](O)[C@@H](C)[C@H](OC(C)=O)[C@@H]1C)C4=O [Rifabutin] ? Its Papp B→A was 16.8
